assay: Plasma clearance in Sprague-Dawley rat at 5 mg/kg, iv by LC-MS/MS analysis; type: ADME, organism-based
Observable: clearance
Lab note: write values as number then unit, every time.

Task: Need clearance of `NS(=O)(=O)NCCNc1nonc1C(=NO)Nc1ccc(F)c(Br)c1` , thanks.
Output: 6.09 L/h/kg

Task: Look up clearance: `CCNC(=O)Nc1nonc1/C(=N/O)Nc1ccc(F)c(Br)c1`
Output: 1.94 L/h/kg

====

Assign AUC(0-t) to each entry below.
assay: AUC (0 to t) in Sprague-Dawley rat at 5 mg/kg, iv by LC-MS/MS analysis; format: ADME, organism-based; design: dose 5 mg/kg, route iv; conditions: in vivo
Give the number; ng·h/mL is assumed, so skip it.

Task: For the compound shown here, NS(=O)(=O)NCCNc1nonc1C(=NO)Nc1ccc(F)c(Br)c1 [EPACADOSTAT] , give the reported AUC(0-t).
Output: 836

Task: Which value of AUC(0-t) has been reported for `CCNC(=O)Nc1nonc1/C(=N/O)Nc1ccc(F)c(Br)c1` in the records?
Output: 2640
